# STUDY SYSTEM: LasR transcriptional activator (Pseudomonas aeruginosa, UniProt P25084)
# Construct: expressed in transfected cells; host or cells: Pseudomonas putida F117 carrying plasmid pKRC12 (lasR, PlasB-gfp)
# Sequence (P25084 whole entry): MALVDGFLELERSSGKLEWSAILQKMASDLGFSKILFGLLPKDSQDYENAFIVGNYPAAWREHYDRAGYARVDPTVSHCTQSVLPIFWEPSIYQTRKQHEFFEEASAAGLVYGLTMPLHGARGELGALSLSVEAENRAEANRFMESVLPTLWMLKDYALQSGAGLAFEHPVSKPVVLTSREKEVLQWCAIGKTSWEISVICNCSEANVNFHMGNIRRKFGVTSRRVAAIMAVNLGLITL
# PROTOCOL: P. putida F117 pKRC12 lasB-GFP reporter assay (secondary screens)
# Format: cell-based
# CONDITION SET: compounds 10 μM; 3oxoC12HSL 50 nM; relative fluorescence (fluorescence divided by absorbance at 600 nm) as percent of AHL induced control
RESULT TYPE: % Activity of AHL Standard, 3 oxo C12HSL (%)

INSERT INTO results (structure_as_smiles, study_system, unit_annotation, numeric_result) VALUES
  ('Cc1cccc(NC(=O)CSC(N)=O)c1C', 'LasR transcriptional activator (Pseudomonas aeruginosa, UniProt P25084)', '%', 43.00),
  ('COC(=O)c1ccccc1NC(=O)CSC(N)=O', 'LasR transcriptional activator (Pseudomonas aeruginosa, UniProt P25084)', '%', 33.64),
  ('CCOC(=O)c1ccccc1NC(=O)CSC(N)=O', 'LasR transcriptional activator (Pseudomonas aeruginosa, UniProt P25084)', '%', 40.09),
  ('NC(=O)SCC(=O)Nc1cccc(Cl)c1', 'LasR transcriptional activator (Pseudomonas aeruginosa, UniProt P25084)', '%', 88.50),
  ('Cc1cccc(NC(=O)CSC(N)=O)c1', 'LasR transcriptional activator (Pseudomonas aeruginosa, UniProt P25084)', '%', 55.40),
  ('Cc1ccc(Cl)cc1NC(=O)CSC(N)=O', 'LasR transcriptional activator (Pseudomonas aeruginosa, UniProt P25084)', '%', 47.85),
  ('NC(=O)SCC(=O)Nc1ccccc1Br', 'LasR transcriptional activator (Pseudomonas aeruginosa, UniProt P25084)', '%', 56.70),
  ('NC(=O)SCC(=O)Nc1cccc(F)c1', 'LasR transcriptional activator (Pseudomonas aeruginosa, UniProt P25084)', '%', 67.60),
  ('NC(=O)SCC(=O)Nc1cccc(I)c1', 'LasR transcriptional activator (Pseudomonas aeruginosa, UniProt P25084)', '%', 81.20),
  ('COc1ccc(NC(=O)CSC(N)=O)cc1', 'LasR transcriptional activator (Pseudomonas aeruginosa, UniProt P25084)', '%', 49.85),
  ('CC(=O)c1ccc(NC(=O)CSC(N)=O)cc1', 'LasR transcriptional activator (Pseudomonas aeruginosa, UniProt P25084)', '%', 64.90);
